Target: FLT3 (Homo sapiens, UniProt P36888)
Sequence (P36888 27-993): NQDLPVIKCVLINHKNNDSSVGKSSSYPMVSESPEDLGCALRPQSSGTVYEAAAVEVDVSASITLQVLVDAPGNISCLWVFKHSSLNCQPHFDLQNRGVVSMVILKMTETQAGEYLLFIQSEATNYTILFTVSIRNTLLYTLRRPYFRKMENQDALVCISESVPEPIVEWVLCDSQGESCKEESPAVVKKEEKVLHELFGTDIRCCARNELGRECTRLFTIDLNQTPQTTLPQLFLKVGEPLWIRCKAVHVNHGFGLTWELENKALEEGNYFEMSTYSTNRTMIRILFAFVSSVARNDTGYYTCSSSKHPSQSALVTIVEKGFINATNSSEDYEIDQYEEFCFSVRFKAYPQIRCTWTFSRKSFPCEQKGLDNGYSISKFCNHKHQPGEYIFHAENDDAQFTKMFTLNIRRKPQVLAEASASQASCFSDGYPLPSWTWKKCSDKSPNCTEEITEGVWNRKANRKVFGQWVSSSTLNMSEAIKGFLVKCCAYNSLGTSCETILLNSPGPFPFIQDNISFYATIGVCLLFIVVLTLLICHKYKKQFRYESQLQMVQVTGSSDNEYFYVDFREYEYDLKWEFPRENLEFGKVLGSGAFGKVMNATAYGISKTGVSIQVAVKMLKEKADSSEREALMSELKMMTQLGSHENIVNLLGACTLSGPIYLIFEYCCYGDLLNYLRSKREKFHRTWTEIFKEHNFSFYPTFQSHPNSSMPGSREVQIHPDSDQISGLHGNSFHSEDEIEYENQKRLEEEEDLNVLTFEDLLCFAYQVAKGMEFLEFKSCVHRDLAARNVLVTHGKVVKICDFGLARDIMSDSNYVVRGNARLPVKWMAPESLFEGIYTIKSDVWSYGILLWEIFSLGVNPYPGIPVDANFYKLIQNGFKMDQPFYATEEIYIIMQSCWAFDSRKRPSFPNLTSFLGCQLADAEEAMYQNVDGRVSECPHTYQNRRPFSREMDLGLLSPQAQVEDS
Test: ADP Glo Kinase Assay, FLT3, 50 nM inhibitor
Type: biochemical
Conditions: 50 nM inhibitor conc.; means of triplicates; read-out: Percent Inhibition (%) FLT3
Procedure: With the amide kinase inhibitor library established, kinase inhibition and AML cell line (Molm-14, which harbors FLT3-ITD) growth inhibition were analyzed (Table 1). More specifically, Haspin and FLT3 inhibition were evaluated in-house via ADP Glo Kinase Assay (Promega, Madison, WI). […] Values reported are means of triplicates. Briefly, the ADP-Glo Kinase Assay Kit was used to determine inhibition of haspin. […]
measured parameter: inhibition at 0.05 µM (%)

Sample answers from the record:
{"molecule": "O=C(NCc1nccs1)c1ccc(-c2nc3ccc4[nH]ncc4c3c3c2CCCC3)cc1", "inhibition at 0.05 µM (%)": 53}
{"molecule": "O=C(NCCn1ccnc1)c1ccc(-c2nc3ccc4[nH]ncc4c3c3c2CCCC3)cc1", "inhibition at 0.05 µM (%)": 31}
{"molecule": "Cc1c[nH]c(CNC(=O)c2ccc(-c3nc4ccc5[nH]ncc5c4c4c3CCCC4)cc2)n1", "inhibition at 0.05 µM (%)": 94}

(A) CCc1nc(C(N)=O)c(Nc2ccc(N3CCC(N4CCN(C)CC4)CC3)c(OC)c2)nc1NC1CCOCC1 [gilteritinib, reference compound]
(B) Cn1ccnc1CNC(=O)c1ccc(-c2nc3ccc4[nH]ncc4c3c3c2CCCC3)cc1
Could you tell me which of these two has the smaller inhibition at 0.05 µM figure? First: A Second: B Refer to your chosen item by its label in the answer. B
